These entries and their values trace back to patent US6989371B1.

- System: HT-29 (colon)
- experimental-details: MTT cytotoxicity assay, 72 hours (Example 13)
- Type: cell-based, human
- condition: HT29, 1 nM
Non-standard residues stand in square brackets, D forms with d. Residues, ends and D or L forms follow the SMILES beside them. Aib = CC(C)(N)C(=O)O
parameter-measured: Percent Cytotoxicity

[[record]]
compound = "CC(C)C[C@H](NC(=O)[C@H](Cc1c[nH]cn1)NC(=O)CNC(=O)[C@@H](NC(=O)C(C)(C)NC(=O)[C@H](Cc1c[nH]c2ccccc12)NC(=O)[C@H](CCC(N)=O)NC(=O)[C@H](N)Cc1ccccc1)C(C)C)C(N)=O [SEQ ID: 4, D-Phe-Gln-Trp-Aib-Val-Gly-His-Leu-NH2] (H-[dF]QW[Aib]VGHL-NH2; N-terminus assumed)"
result = "39.6 ± 4.3%"


For every item in the list below, what is its measured Percent Cytotoxicity?
1. CC[C@H](C)[C@H](NC(=O)[C@H](Cc1c[nH]cn1)NC(=O)CNC(=O)[C@@H](NC(=O)C(C)(C)NC(=O)[C@H](Cc1c[nH]c2ccccc12)NC(=O)[C@H](CCC(N)=O)NC(=O)[C@H](N)Cc1ccccc1)C(C)C)C(N)=O [SEQ ID: 6, D-Phe-Gln-Trp-Aib-Val-Gly-His-Ile-NH2] (H-[dF]QW[Aib]VGHI-NH2; N-terminus assumed)
2. CCCC(CCC)(NC(=O)[C@@H](NC(=O)[C@H](C)NC(=O)[C@@H](Cc1c[nH]c2ccccc12)NC(=O)[C@H](CCC(N)=O)NC(=O)[C@H](N)Cc1ccccc1)C(C)C)C(=O)N[C@@H](Cc1c[nH]cn1)C(=O)N[C@@H](CC(C)C)C(N)=O
3. CC(C)C[C@H](NC(=O)[C@H](Cc1c[nH]cn1)NC(=O)C(C)(C)NC(=O)[C@@H](NC(=O)[C@H](C)NC(=O)[C@@H](Cc1c[nH]c2ccccc12)NC(=O)[C@H](CCC(N)=O)NC(=O)[C@H](N)Cc1ccccc1)C(C)C)C(N)=O [SEQ ID: 5, D-Phe-Gln-D-Trp-Ala-Val-Aib-His-Leu-NH2] (H-[dF]Q[dW]AV[Aib]HL-NH2; N-terminus assumed)

Completion:
["26.7 ± 4.2%", "34.7 ± 3.3%", "27.9 ± 2.9%"]
